The reported measurements were obtained from patent US9617221B2.

# Tested on: IL-10
# procedureDetails: IL-10 production by LPS-stimulated murine peritoneal macrophage (ELISA)
# Format: cell-based, mice
# settings: 50 μM inhibitor in medium; murine peritoneal macrophage
property: IL-10 by ELISA, % of solvent treated control

Some entries whose results are on file:
{"columns": ["molecule", "valueReported"],
 "data": [
  ["CC[C@H]1OC(=O)[C@H](C)[C@@H](O[C@H]2C[C@@](C)(OC)[C@@H](O)[C@H](C)O2)[C@H](C)[C@@H](O[C@@H]2O[C@H](C)C[C@H](N(C)CCCCCC(=O)OCCSc3nc(-c4ccc(F)cc4)c(-c4ccnc(NC(C)C)c4)[nH]3)[C@H]2O)[C@](C)(O)C[C@@H](C)CN(C)[C@H](C)[C@@H](O)[C@]1(C)O [Compound 43k]", "−9 % of solvent treated control"],
  ["CC[C@H]1OC(=O)[C@H](C)[C@@H](O)[C@H](C)[C@@H](O[C@@H]2O[C@H](C)C[C@H](N(C)CCCC(=O)OCC(O)CSc3nc(-c4ccc(F)cc4)c(-c4ccnc(NC5CCOCC5)c4)[nH]3)[C@H]2O)[C@](C)(O)C[C@@H](C)CN(C)[C@H](C)[C@@H](O)[C@]1(C)O (some centres unmarked) [Compound 43c]", "−4 % of solvent treated control"]
]}

Consider CCC1OC(=O)C(C)C(OC2CC(C)(OC)C(O)C(C)O2)C(C)C(OC2OC(C)CC(N(C)CCCCCC(=O)OCCO)C2O)C(C)(O)CC(C)CN(C)C(C)C(O)C1(C)O (centres unmarked) . Its measured IL-10 by ELISA, % of solvent treated control is 0 % of solvent treated control

Consider CC[C@H]1OC(=O)[C@H](C)[C@@H](O[C@H]2C[C@@](C)(OC)[C@@H](O)[C@H](C)O2)[C@H](C)[C@@H](O[C@@H]2O[C@H](C)C[C@H](N(C)CCCC(=O)OCC(O)CSc3nc(-c4ccc(F)cc4)c(-c4ccnc(NC(C)c5ccccc5)c4)[nH]3)[C@H]2O)[C@](C)(O)C[C@@H](C)CN(C)[C@H](C)[C@@H](O)[C@]1(C)O (some centres unmarked) [Compound 43i] . Its measured IL-10 by ELISA, % of solvent treated control is 0 % of solvent treated control

Consider CCC(C)Nc1cc(-c2[nH]c(SCC(O)COC(=O)CCCN(C)[C@H]3C[C@@H](C)O[C@@H](O[C@@H]4[C@@H](C)[C@H](O)[C@@H](C)C(=O)O[C@H](CC)[C@@](C)(O)[C@H](O)[C@@H](C)N(C)C[C@H](C)C[C@@]4(C)O)[C@@H]3O)nc2-c2ccc(F)cc2)ccn1 (some centres unmarked) [Compound 43e] . Its measured IL-10 by ELISA, % of solvent treated control is −4 % of solvent treated control

* * *

Reported IL-10 by ELISA, % of solvent treated control is given for each of the following molecules.
# System: IL-10
# procedureDetails: IL-10 production by LPS-stimulated murine peritoneal macrophage (ELISA)
# Assay type: cell-based, mice
# settings: 1.25 μM inhibitor in medium; murine peritoneal macrophage

Consider CCC1OC(=O)C(C)C(OC2CC(C)(OC)C(O)C(C)O2)C(C)C(OC2OC(C)CC(N(C)CCCC(=O)OCC3CO3)C2O)C(C)(O)CC(C)CN(C)C(C)C(O)C1(C)O (centres unmarked) [Compound 29] . Its measured IL-10 by ELISA, % of solvent treated control is 110 % of solvent treated control

Consider CC[C@H]1OC(=O)[C@H](C)[C@@H](O[C@H]2C[C@@](C)(OC)[C@@H](O)[C@H](C)O2)[C@H](C)[C@@H](O[C@@H]2O[C@H](C)C[C@H](N(C)CC(O)CSc3nc(-c4ccc(F)cc4)c(-c4ccncc4)[nH]3)[C@H]2O)[C@](C)(O)C[C@@H](C)CN(C)[C@H](C)[C@@H](O)[C@]1(C)O (some centres unmarked) [Compound 20] . Its measured IL-10 by ELISA, % of solvent treated control is −11 % of solvent treated control

Consider CCOC(=O)CCCN(C)C1CC(C)OC(OC2C(C)C(OC3CC(C)(OC)C(O)C(C)O3)C(C)C(=O)OC(CC)C(C)(O)C(O)C(C)N(C)CC(C)CC2(C)O)C1O (centres unmarked) [Compound 27] . Its measured IL-10 by ELISA, % of solvent treated control is 132 % of solvent treated control

Consider CC[C@H]1OC(=O)[C@H](C)[C@@H](O[C@H]2C[C@@](C)(OC)[C@@H](O)[C@H](C)O2)[C@H](C)[C@@H](O[C@@H]2O[C@H](C)C[C@H](N(C)CCCC(=O)OCC(O)CSc3nc(-c4ccc(F)cc4)c(-c4ccncc4)[nH]3)[C@H]2O)[C@](C)(O)C[C@@H](C)CN(C)[C@H](C)[C@@H](O)[C@]1(C)O (some centres unmarked) [Compound 43g] . Its measured IL-10 by ELISA, % of solvent treated control is 26 % of solvent treated control

Consider Nc1c(C(=O)c2cccc(OCC(O)CO)c2)cnn1-c1ccc(F)cc1 (centres unmarked) [Compound 49] . Its measured IL-10 by ELISA, % of solvent treated control is 41 % of solvent treated control

Consider CC[C@H]1OC(=O)[C@H](C)[C@@H](O[C@H]2C[C@@](C)(OC)[C@@H](O)[C@H](C)O2)[C@H](C)[C@@H](O[C@@H]2O[C@H](C)C[C@H](N(C)CC(O)CSc3nc(-c4ccc(F)cc4)c(-c4ccncc4)[nH]3)[C@H]2O)[C@](C)(O)C[C@@H](C)C(=O)[C@H](C)[C@@H](O)[C@]1(C)O (some centres unmarked) [Compound 21] . Its measured IL-10 by ELISA, % of solvent treated control is 95 % of solvent treated control

Consider CC[C@H]1OC(=O)[C@H](C)[C@@H](O)[C@H](C)[C@@H](O[C@@H]2O[C@H](C)C[C@H](N(C)CC(O)CSc3nc(-c4ccc(F)cc4)c(-c4ccncc4)[nH]3)[C@H]2O)[C@](C)(O)C[C@@H](C)CN(C)[C@H](C)[C@@H](O)[C@]1(C)O (some centres unmarked) [Compound 22] . Its measured IL-10 by ELISA, % of solvent treated control is 86 % of solvent treated control

Consider CC[C@H]1OC(=O)[C@H](C)[C@@H](O[C@H]2C[C@@](C)(OC)[C@@H](O)[C@H](C)O2)[C@H](C)[C@@H](O[C@@H]2O[C@H](C)C[C@H](N(C)CCCC(=O)OCC(O)COc3cccc(C(=O)c4cnn(-c5ccc(F)cc5)c4N)c3)[C@H]2O)[C@](C)(O)C[C@@H](C)CN(C)[C@H](C)[C@@H](O)[C@]1(C)O (some centres unmarked) [Compound 43h] . Its measured IL-10 by ELISA, % of solvent treated control is 68 % of solvent treated control
